- SUBJECT_OF_TEST: HLA-A2 on T2 cells pulsed with URB1: 1853-1861 peptide (human)
- ASSAY_NOTES: flow cytometry, 10 ug/ml, pulsed T2 cells
RESULT_TYPE: ratio of MFI, pulsed to unpulsed (ratio)
One number for each entry, in ratio.

Query: Suppose we examine the binder mAb28037P2 (antibody, human IgG4 S228P, kappa, V domains shown) VH: QVQLQESGPGLVKPSETLSLTCTVSGDSISVYYWTWIRQPPGKGLEWIGYVHYTGYTNYNPSLKSRVTMSVDTAKKQISLKVRSVTAADTAVYYCARTIPAAAHYYHGTDVWGPGTTVTVSS VL: DIQMTQSPSSLSASVGDRVTITCQANQDIRKYLNWYQQKSGKAPTLLIYEASNLETGAPSTFSGSGSGTEFTFTISSLRPEDIATYYCQQYESLPLTFGGGTKVEIKR ; what ratio of MFI, pulsed to unpulsed value has been reported?
Response: 0.6
